Listed here: items and their measured Counts/minute bound.
# measured target: T1, recombinant human IL-6 (human, UniProt P05231 30-212, labeled with radioactive iodine)
# T1 construct: Labeled probe in solution, added to wells that carry the synthetic peptides; also called IL-6 ligand; Interleukin-6
# assay overview: radioiodinated IL-6 on peptide array
Number only, in counts/minute; omit the unit.

Field: example entries. Status: answers known.
TQGYRTVQLVWKTLPPFEANGKIL [Peptide E35] = 1170
ISPESPVVQLHSNFTAVCVLKEKC [Peptide E4] = 1500
FTDIASLNIQLTCNILTFGQLEQN [Peptide E10] = 3380

Kindly consider the entry below.
Entry under test: HVDGGDGILPRQQYFKQNCSQHES [Peptide E81] . Its Counts/minute bound was 1100
